Origin of measurements: PubChem BioAssay AID328

test system: BDF1 mice, P388 leukemia ip, median survival T/C; test: NCI In Vivo Anticancer Drug Screen. Data for tumor model P388 Leukemia (intraperitoneal) in B6D2F1 (BDF1) mice; conditions: endpoint: median survival time; dose: 75.0 mg/kg/injection; schedule: Q04DX003 (ip); vehicle: saline with Tween-80
Toxic doses and inconclusive results are not listed. Rule for the calls: active = survival T/C of 150% or more; inactive = T/C below 125% in these data.
Possible outcomes: active, inactive

| MOLECULE | CATEGORY |
| --- | --- |
| Cc1cccc2c(Nc3ccc(NS(C)(=O)=O)cc3)c3ccccc3nc12 | active |
| CCCCCCCN(CCCCCCC)CC(O)c1cc2ccccc2c2cnccc12 (centres undefined) | inactive |
| CCCCCCCCCCOP(=S)(N1CC1)N1CC1 | active |
| NC(CSC(c1ccccc1)(c1ccccc1)c1ccc(Cl)cc1)C(=O)O (centres undefined) | active |

---

test system: BDF1 mice, P388 leukemia ip, median survival T/C; test: NCI In Vivo Anticancer Drug Screen. Data for tumor model P388 Leukemia (intraperitoneal) in B6D2F1 (BDF1) mice; conditions: endpoint: median survival time; dose: 6.25 mg/kg/injection; schedule: Q01DX009 (ip); vehicle: saline
Inconclusive results and toxic doses are left out. How the source made its calls: active means survival T/C of 150% or more; inactive means T/C below 125% in these data.
Classes used: yes (1) = active, no (0) = inactive

| MOLECULE | CATEGORY |
| --- | --- |
| CCN(CC)CCCCCCNc1cc(OC)c(F)c2c(C)ccnc12 | no (0) |
| O=C(Nc1ccc(Cl)cc1)P(=O)(O)c1ccccc1 | no (0) |
| CCCCCCCCCCC[N+](C)(C)CC(O)C[N+](C)(C)CCCCCCCCCCC | no (0) |
| CN(C)CCCN1c2ccccc2Sc2ccc(Cl)cc21 | no (0) |
| Cc1cc2nc(CBr)c(CBr)nc2cc1C | no (0) |
| O=C(O)CN=Cc1ccccc1O.O=C(O)CN=Cc1ccccc1O.[Fe] | no (0) |
| Cc1cccc2cc3cccc[n+]3cc12 | no (0) |
| N#CN1CC(C(=O)N2CCCCC2)C=C2c3cccc4[nH]cc(c34)CC21 (configuration not stated) | no (0) |
| Clc1nc2n[nH]nc2nc1Cl | no (0) |
| COC1OC(CO)C(O)C(O)C1O (configuration not stated) | no (0) |
| CCCCCCCCCCCC[N+](C)(C)CCCCCC[N+](C)(C)CCCCCCCCCCCC | no (0) |
| CC1CCC[N-]C1.CC1CCC[N-]C1.[Cl][Pt+2]([Cl])([Cl])[Cl] (configuration not stated) | yes (1) |

---

tested on: BDF1 mice, P388 leukemia ip, median survival T/C; test: NCI In Vivo Anticancer Drug Screen. Data for tumor model P388 Leukemia (intraperitoneal) in B6D2F1 (BDF1) mice; details: endpoint: median survival time; dose: 25.0 mg/kg/injection; schedule: Q01DX001 (ip); vehicle: saline; higher = longer survival
Inconclusive results and toxic doses are left out.
Let's look at some molecules and their measured T/C.

| CHEMICAL_SMILES | T/C |
| --- | --- |
| [Cr+6].[NH2-].[NH2-].[NH2-].[NH2-].[NH2-].[NH2-] | 112 % of control |
| CN1C(=O)C(C)(C)C(=O)C1(C)C | 100 % of control |
| OCC#CCO | 113 % of control |
| [Cl][Ni][Cl].[NH-]CCN1CC1.[NH-]CCN1CC1 | 100 % of control |
